molecular target: Enoyl-[acyl-carrier-protein] reductase [NADH] FabI (Escherichia coli (strain K12)); assay: Inhibition Kinetics Assay; conditions: pH 7.5
Sequence (P0AEK4 whole entry): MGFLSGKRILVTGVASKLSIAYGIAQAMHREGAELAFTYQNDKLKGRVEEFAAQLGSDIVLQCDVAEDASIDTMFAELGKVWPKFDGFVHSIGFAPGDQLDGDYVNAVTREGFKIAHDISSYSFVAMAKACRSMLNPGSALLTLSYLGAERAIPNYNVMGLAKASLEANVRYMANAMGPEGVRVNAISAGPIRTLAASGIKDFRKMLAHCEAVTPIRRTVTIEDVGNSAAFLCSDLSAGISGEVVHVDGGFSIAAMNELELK
pKi: −log10 of the molar value.

compound.string | pKi
CCCCCCc1cc(=O)c(Oc2ccccc2C)cn1C | 8.15
CCCCCCc1ccn(Cc2ccccc2C)c(=O)c1 | 7.02
CCCCCCc1ccn(Cc2cccc(N)c2C)c(=O)c1 | 6.69

----------
molecular target: Enoyl-[acyl-carrier-protein] reductase [NADPH] FabI (Staphylococcus aureus (strain NCTC 8325 / PS 47)); experiment: Inhibition Kinetics Assay; conditions: pH 7.5
Sequence (Q2FZQ3 whole entry): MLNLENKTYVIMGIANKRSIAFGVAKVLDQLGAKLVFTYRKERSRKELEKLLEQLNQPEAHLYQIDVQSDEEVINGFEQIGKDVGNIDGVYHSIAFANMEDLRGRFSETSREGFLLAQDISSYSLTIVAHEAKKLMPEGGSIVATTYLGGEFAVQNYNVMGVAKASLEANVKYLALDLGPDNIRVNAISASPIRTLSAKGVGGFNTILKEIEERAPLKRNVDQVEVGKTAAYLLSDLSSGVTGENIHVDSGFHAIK
Each entry below carries its reported Ki.
value.kind: Ki (nM)

compound.string | test.result
CCCCCCc1cc(=O)c(Cc2ccccc2C#N)cn1C | 11
CCCCCCc1ccn(Cc2ccccc2C)c(=O)c1 | 11.9
CCCCCCc1ccn(Cc2ccccc2Cl)c(=O)c1 | 11
